# credit: patent US20230295157A1

target: human plasma kallikrein (Homo sapiens (Human), UniProt P03952); test: Kallikrein inhibition assay (FLINT) utilizing a quenched AMC peptide substrate; type: biochemical; details: 30 min preincubation, kinetic reads over 30 min, Z-Gly-Pro-Arg-AMC substrate 50 μM; read-out: Kallikrein Kin Inh IC50
Sequence (P03952 391-638): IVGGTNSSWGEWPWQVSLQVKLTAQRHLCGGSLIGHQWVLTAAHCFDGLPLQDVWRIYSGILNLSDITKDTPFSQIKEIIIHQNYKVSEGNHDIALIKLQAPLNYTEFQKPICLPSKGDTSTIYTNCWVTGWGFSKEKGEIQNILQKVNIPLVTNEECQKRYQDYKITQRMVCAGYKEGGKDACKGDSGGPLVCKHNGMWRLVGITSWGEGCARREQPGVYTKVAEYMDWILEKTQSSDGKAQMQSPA
Sequence (P03952 20-390 partner): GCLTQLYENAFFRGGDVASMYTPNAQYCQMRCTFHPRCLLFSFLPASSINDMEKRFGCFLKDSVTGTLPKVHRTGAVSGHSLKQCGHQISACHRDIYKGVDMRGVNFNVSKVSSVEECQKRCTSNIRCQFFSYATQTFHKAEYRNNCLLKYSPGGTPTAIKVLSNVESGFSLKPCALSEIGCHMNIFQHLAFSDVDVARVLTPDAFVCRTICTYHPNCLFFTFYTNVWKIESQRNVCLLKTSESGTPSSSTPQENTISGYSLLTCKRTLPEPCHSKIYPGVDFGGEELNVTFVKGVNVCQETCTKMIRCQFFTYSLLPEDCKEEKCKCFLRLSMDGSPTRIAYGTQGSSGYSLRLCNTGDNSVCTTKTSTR
# Lookup of reported IC50 keyed by entry

compound	IC50, nM
O=C(Nc1cnccc1-c1c[nH]c([C@@H]2CC[C@H]3CC(c4c(-n5cnnn5)ccc(Cl)c4F)=CC(=O)N32)n1)C1CC1 (relative stereo)	0.7
O=C1C=C(c2c(-n3cnnn3)ccc(Cl)c2F)C[C@H]2CC[C@@H](c3ncc(-c4ccnc(C(F)(F)CO)c4F)[nH]3)N12 (relative stereo)	27.8
[2H][C@@]12CC[C@@H](c3ncc(-c4ccnc(CO)c4F)[nH]3)N1C(=O)C=C(c1c(-n3cnnn3)ccc(Cl)c1F)C2 (relative stereo)	72.4
NC(=O)c1ccc(-c2cnc([C@@H]3CC[C@@H]4CC(c5c(-n6cnnn6)ccc(Cl)c5F)=CC(=O)N43)[nH]2)c(F)c1	3.4
CC(C)(O)CCc1nccc(-c2cnc([C@@H]3CC[C@@H]4CC(c5c(-n6cnnn6)ccc(Cl)c5F)=CC(=O)N43)[nH]2)c1F (single isomer, unassigned)	7.8
NC(=O)c1cc(-c2c[nH]c([C@@H]3CCC4CC(c5c(-n6cnnn6)ccc(Cl)c5F)=CC(=O)N43)n2)cs1 (stereo partly drawn)	1.9
